test system: NCI-H226 lung; assay: NCI-60 one-dose screen, 48 h (100 = growth as untreated, 0 = no growth, -100 = all killed); settings: 10 µM unless noted
About 83,000 compounds went through this panel and 20% of them were active in at least one assay; those are over-represented in the sample as a whole.
Readout Type: growth (%)

[[record]]
compound = "CC(=O)C(c1c(O)c2ccccc2oc1=O)c1cc(=O)oc2c1ccc1ccccc12 (configuration not stated)"
value_reported = 90.7

[[record]]
compound = "O=[N+]([O-])c1cc([N+](=O)[O-])c(Nn2c3ccccc3c3ccccc32)c([N+](=O)[O-])c1"
value_reported = -1.91

[[record]]
compound = "Cn1cc(-c2csc(-c3cn(CCN4CCOCC4)c4ccccc34)n2)c2cccnc21"
value_reported = 41.4

[[record]]
compound = "C[CH2][Sn]([Cl])([Cl])[CH2]C.Oc1ccccc1C=NCCN=Cc1ccccc1O"
value_reported = 99.1

[[record]]
compound = "COC(=O)[C@@H](C)C[C@H](Cc1ccccc1)NC(=O)c1nc([C@@H](C[C@H](C(C)C)N(C)C(=O)[C@@H](NC(=O)[C@H]2CCCN2C)C(C)C)OC(C)=O)sc1C"
value_reported = 43.4

[[record]]
compound = "Cc1cccc(N2CCN(C(C)C#N)CC2)c1 (configuration not stated)"
value_reported = 96.6

[[record]]
compound = "O=C(N/N=C/c1ccc(N(CCCl)CCCl)cc1)c1cccc2ccccc12"
value_reported = 74.3

[[record]]
compound = "Cn1cc(-c2csc(-c3cn(CCN4CCOCC4)c4ccc(F)cc34)n2)c2cccnc21"
value_reported = 16.6

[[record]]
compound = "COC(=O)[C@@H](C)C[C@H](Cc1ccccc1)NC(=O)c1csc([C@@H](C[C@H](C(C)C)N(C)C(=O)[C@@H](NC(=O)[C@H]2CCCCN2C)C2CCCCC2)OC(C)=O)n1"
value_reported = 20.5

[[record]]
compound = "COC(=O)[C@@H](C)C[C@H](Cc1ccccc1)NC(=O)c1csc([C@@H](C[C@H](C(C)C)N(C)C(=O)[C@@H](NC(=O)CN(C)C)C2CC2)OC(C)=O)n1"
value_reported = 19.1

[[record]]
compound = "CC1=C(CN)C2=C(C)C3(CC3)[C@@](C)(O)C(=O)C2=C1"
value_reported = 91.8

[[record]]
compound = "COC(=O)C12CC(NC(=O)c3csc([C@@H](C[C@H](C(C)C)N(C)C(=O)[C@@H](NC(=O)[C@H]4CCCCN4C)C4CC4)OC(C)=O)n3)(C1)C2"
value_reported = 14.6

[[record]]
compound = "C[C@]12CC[C@H]3[C@@H](C[C@@H]4SC(Nc5ccccc5)=N[C@@]45CC(O)CC[C@]35C)[C@@H]1CCC2O (some centres not stated)"
value_reported = 63.9

[[record]]
compound = "COc1ccc(S(=O)(=O)N(Cc2ccc3c(c2)C=CC(C)(C)O3)c2ccccc2)cc1OC"
value_reported = 55.4

[[record]]
compound = "COC(=O)[C@@H](C)C[C@H](Cc1ccccc1)NC(=O)c1cccc([C@@H](C[C@H](C(C)C)N(C)C(=O)[C@@H](NC(=O)[C@H]2CCCCN2C)C(C)C)OC(C)=O)n1"
value_reported = 68.1

[[record]]
compound = "O=[N+]([O-])c1ccc(OP(=O)(CCl)N(CCCl)CCCl)cc1 (configuration not stated)"
value_reported = 98.9

[[record]]
compound = "NC(N)=N/N=C\\c1c[nH]c2ccc(Br)cc12"
value_reported = 69.2

[[record]]
compound = "NC(=O)C(Br)c1ccccc1 (configuration not stated)"
value_reported = 88.7

[[record]]
compound = "Cc1cc(N(CCCl)CCCl)ccc1C=Nc1cccnc1"
value_reported = -45.2

[[record]]
compound = "C[C@@]12CC=C3c4nc(Nc5cccc(O)c5)sc4CC[C@]3(C)[C@H]1CC[C@]1(C)C(=O)CC[C@@H]21"
value_reported = 94.5

[[record]]
compound = "CC1(C)CN1P(=O)(N1CC1(C)C)N1CC1(C)C (configuration not stated)"
value_reported = 109

[[record]]
compound = "O=C(Nc1ccc([As]=[As]c2ccc(NC(=O)c3ccccc3)cc2)cc1)c1ccccc1 (configuration not stated)"
value_reported = -85.5

[[record]]
compound = "ClCCN(CCCl)c1ccc(/C=N\\N=C\\c2ccc(N(CCCl)CCCl)cc2)cc1"
value_reported = 28.9

[[record]]
compound = "CCCc1cc(O)c2c3c(c(=O)oc2c1)CN(C)CC3"
value_reported = 38.9

[[record]]
compound = "COc1cc2c(cc1OCCCCn1c(-c3cccs3)nc3ccccc31)N=C[C@@H]1CCCN1C2=O"
value_reported = -34.7

[[record]]
compound = "COc1ccc(C/C(C)=C(\\c2ccc(OCCN3CCOCC3)cc2)c2ccc(OC(=O)Cc3ccccc3)cc2)cc1"
value_reported = -26.6

[[record]]
compound = "CCOC(=O)CCC(NC(=O)C(Cc1ccc(N(CCCl)CCCl)cc1)NC=O)C(=O)OCC (configuration not stated)"
value_reported = 57.5

[[record]]
compound = "C=CC[Se]C(=O)c1ccccc1OC(C)=O"
value_reported = 28.1

[[record]]
compound = "C=CC12CCN(CC1)C(C(O)c1ccnc3ccc(OC)cc13)C2 (configuration not stated)"
value_reported = 89.3

[[record]]
compound = "CCOP1(=O)CC(C)=C(Cl)C(P(=O)(OCC)OCC)C1 (configuration not stated)"
value_reported = 103

[[record]]
compound = "COc1ccc(/C=C/c2cc(OC)c(OC)c(OC)c2)cc1NC(=O)/C=C/c1ccc(F)cc1"
value_reported = 36.6

[[record]]
compound = "Oc1ccc2c3c1OC1[C@@H](O)CC[C@@]4(O)[C@@H](C2)N(CC2CCC2)CC[C@]314 (some centres not stated)"
value_reported = 99.1

[[record]]
compound = "O=C(c1ccccc1O)c1[nH]c(Cl)c(Cl)c1-n1c(C(=O)c2ccccc2O)cc(Cl)c1Cl"
value_reported = -1.5

[[record]]
compound = "COP(=S)(N1CC1)N1CC1"
value_reported = 98.6

[[record]]
compound = "COC(=O)[C@@H](C)C[C@H](Cc1ccccc1)NC(=O)c1csc([C@@H](C[C@H](C(C)C)N(C)C(=O)[C@@H](NC(=O)[C@H]2CCCCN2C)C(C(F)(F)F)C(F)(F)F)OC(C)=O)n1"
value_reported = 56.7

[[record]]
compound = "O=NNc1ccccn1"
value_reported = 91.1

[[record]]
compound = "COC(=O)[C@@]1(O)C[C@H]2O[C@]1(C)n1c3ccccc3c3c4c(c5c6ccccc6n2c5c31)C(=O)NC4"
value_reported = -63.1

